System: SF-268 CNS
Assay: NCI-60 one-dose screen, 48 h (100 = growth as untreated, 0 = no growth, -100 = all killed)
Details: 10 µM unless noted
This is part of a sample that, as a whole, favours compounds with a hit. Of some 83,000 tested, about 20% had one in any assay.
Kindly note that classification relies on growth with these boundaries: band 1 = under 50%, band 2 = from 50% up to 90%, band 3 = 90% and over

Example entries and their recorded answers appear below.
compound: Cn1ncc2c(Nc3ccccc3Cl)nc(Cl)nc21
answer_label: band 3

compound: O=C(/C=C/c1ccc[nH]1)c1ccc(-n2ccc(C(F)(F)F)n2)cc1
answer_label: band 1

compound: NNC(=O)/C(=C\c1ccc([N+](=O)[O-])cc1)CC(=O)c1ccc(Cl)c(Cl)c1
answer_label: band 2

compound: Cc1n[nH]c(C)c1-c1c(C)n[nH]c1C
answer_label: band 1

compound: NC(=S)N/N=C/c1ccc(OC(=O)COc2cc(Cl)c(Cl)cc2Cl)cn1
answer_label: band 1

compound: Cn1c2c(Cl)c(Cl)ccc2c2cc(N)[nH]c(=O)c21
answer_label: band 2

compound: CCCC/C(=N\N=C(N)N)c1ccc(F)cc1
answer_label: band 1

compound: COc1cc(OC)c(/C=C/C(=O)c2ccc(Nc3ncnc4ccccc34)cc2)c(OC)c1
answer_label: band 1

compound: Cc1ccc(-c2c(Br)c(OC(=O)CO[C@@H]3C[C@H](C)CC[C@H]3C(C)C)c(-c3ccc(C)cc3C)c(Br)c2OC(=O)CO[C@H]2C[C@@H](C)CC[C@@H]2C(C)C)c(C)c1
answer_label: band 3

compound: COC(=O)Nc1nc2ccc(C(=O)c3cccc(I)c3)cc2[nH]1
answer_label: band 1

Problem: State the band of "O=C(NNc1nc(Cl)nc(N2CCN(C(c3ccccc3)c3ccccc3)CC2)n1)c1ccccc1"
Result: band 2

Problem: State the band of "O=C(CSc1nc2sc3c(c2c(=O)n1Cc1ccccc1)CCCC3)N1CCN(c2ccccc2)CC1"
Result: band 3

Problem: State the band of "Cc1cccc(C)c1-c1cc(Cc2ccc(Cl)cc2)c(=O)[nH]n1"
Result: band 3

Problem: State the band of CC[N+](CC)(CCCC(C)[N+]1(Cc2ccccc2)C(C)=CC=C1C)Cc1ccccc1 (stereo unspecified)
Result: band 3

Problem: State the band of "COc1ccc(Cn2nc(-c3ccccc3)c3c2CCc2cnoc2-3)cc1"
Result: band 2

Problem: State the band of Clc1ccc(N2N=C(c3cccc(Nc4ccncc4)c3)CC2c2ccccc2)cc1 (stereo unspecified)
Result: band 2

Problem: State the band of "COc1ccc(Cc2nc3cc(OC)c(OC)cc3c(=O)[nH]2)cc1"
Result: band 1

Problem: State the band of "COc1ccccc1-c1c(-c2ccc(Cl)cc2)c2cc3c(cc2[nH]c1=O)OCCO3"
Result: band 2

Problem: State the band of COC(=O)CCCCCCCCC1(C)C=CC(C(C)O)=CC1 (stereo unspecified)
Result: band 3

Problem: State the band of "Cn1c(COC(=O)NCCc2ccccn2)nc2c(N3CCOCC3)nc(Cl)nc21"
Result: band 1

====

Below: a set of entries, each annotated with reported growth.
System: LOX IMVI melanoma
Assay: NCI-60 one-dose screen, 48 h (100 = growth as untreated, 0 = no growth, -100 = all killed)
Conditions: 10 µM unless noted
This is part of a sample that, as a whole, favours compounds with a hit. Of some 83,000 tested, about 20% had one in any assay. Calls of active or inactive are those of the source. How the source made its calls: active means growth percent below 10; inactive means the rest.

compound: CC1(C)CN(Cc2ccccc2)CCN1Cc1ccccc1
system: LOX IMVI melanoma
recorded_result: 98.6% (inactive)
//
compound: COc1c(Cl)cc(Cl)c2ccc(C=C3C(=O)NC(=S)NC3=O)nc12
system: LOX IMVI melanoma
recorded_result: 101% (inactive)
//
compound: O=C(Nc1cccc(C2=NCCN2)c1)c1ccc(OCCCOc2ccc(C(=O)Nc3cccc(C4=NCCN4)c3)cc2)cc1
system: LOX IMVI melanoma
recorded_result: -33.4% (active)
//
compound: c1ccc2c(-c3c4ccsc4cc4[nH]c5ccccc5c34)c[nH]c2c1
system: LOX IMVI melanoma
recorded_result: 26.9% (inactive)
//
compound: COc1ccc(-n2cc(-c3cc(OC)c(OC)c(OC)c3)n(C(C)=O)c2=O)cc1
system: LOX IMVI melanoma
recorded_result: 94% (inactive)
//
compound: O=S(=O)(NCCNc1nccc(-c2c(-c3cccc(F)c3)nc3occn23)n1)c1cccc2ccccc12
system: LOX IMVI melanoma
recorded_result: 59.7% (inactive)
//
compound: C=C(C)[C@@H]1CC[C@]2(C(=O)NCCCN(CCC#N)CCC#N)CC[C@]3(C)[C@H](CC[C@@H]4[C@@]5(C)CCC(=O)C(C)(C)[C@@H]5CC[C@]43C)[C@@H]12
system: LOX IMVI melanoma
recorded_result: 101% (inactive)
//
compound: CC1NC(=S)NC(=O)/C1=C/c1cc(=O)oc2c1ccc1ccccc12 (centres undefined)
system: LOX IMVI melanoma
recorded_result: 89.2% (inactive)

Now consider a different compound.
Problem: Determine from records and report growth for "COc1cc(/C=C/C(=O)c2c(C)oc3nc[nH]c(=O)c23)ccc1O"
Result: 97.7% (inactive)
